Target: human SGLT2 (Homo sapiens, UniProt P31639)
Construct: expressed in transfected cells; host or cells: CHO-K1
Sequence (P31639 whole entry): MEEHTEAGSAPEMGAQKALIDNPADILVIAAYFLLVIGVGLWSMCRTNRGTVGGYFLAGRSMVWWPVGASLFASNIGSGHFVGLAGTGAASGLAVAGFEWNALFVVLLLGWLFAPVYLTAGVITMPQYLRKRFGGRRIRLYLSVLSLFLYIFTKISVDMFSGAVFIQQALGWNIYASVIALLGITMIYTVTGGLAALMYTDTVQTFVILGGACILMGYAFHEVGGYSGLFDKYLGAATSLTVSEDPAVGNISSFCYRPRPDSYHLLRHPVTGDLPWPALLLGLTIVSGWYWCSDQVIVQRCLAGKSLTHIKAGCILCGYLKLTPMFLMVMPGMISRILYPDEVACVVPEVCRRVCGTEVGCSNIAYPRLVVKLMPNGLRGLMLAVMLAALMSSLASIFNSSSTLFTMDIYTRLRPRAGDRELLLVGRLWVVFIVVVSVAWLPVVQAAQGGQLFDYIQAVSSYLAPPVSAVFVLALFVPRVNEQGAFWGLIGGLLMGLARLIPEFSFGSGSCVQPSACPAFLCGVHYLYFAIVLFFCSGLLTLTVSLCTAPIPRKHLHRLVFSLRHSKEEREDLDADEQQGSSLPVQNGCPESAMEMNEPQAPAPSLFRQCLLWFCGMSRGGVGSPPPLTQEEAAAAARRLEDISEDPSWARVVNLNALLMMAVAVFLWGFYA
Experiment: Inhibitory activity against methyl-α-D-glucopyranoside uptake, CHO cells stably expressing human SGLT2
Format: cell-based
Settings: inhibition of SGLT2, Table 2-1; read-out: IC50 value
readout_kind: IC50 (nM)

1. Cc1cc2c(cc1Cc1ccc(C(C)C)cc1)[C@]1(OC2)O[C@H](CO)[C@@H](O)[C@H](O)[C@H]1O : 2.1
2. CCc1ccc(Cc2cc3c(cc2Cl)CO[C@]32O[C@H](CO)[C@@H](O)[C@H](O)[C@H]2O)s1 : 1.5
3. Cc1cc2c(cc1Cc1ccc(C(F)(F)F)cc1)[C@]1(OC2)O[C@H](CO)[C@@H](O)[C@H](O)[C@H]1O : 2.8
4. CCOc1ccc(Cc2cc3c(cc2F)CO[C@]32O[C@H](CO)[C@@H](O)[C@H](O)[C@H]2O)cc1 : 2.6
5. Cc1cc2c(cc1Cc1ccc(OC(F)(F)F)cc1)[C@]1(OC2)O[C@H](CO)[C@@H](O)[C@H](O)[C@H]1O : 2.6
